# Format: physicochemical
# Applied Conditions: not told, pH 4.1

Compound: O=C(O)CNCP(=O)(O)O [glyphosate, N-(phopshomethyl)glycine]
Papp at 20 mM, ×10⁻⁶ cm/s: 420

====

# Type: physicochemical
# Applied Conditions: not told, pH 7

Compound: O=C(O)CNCP(=O)(O)O [glyphosate, N-(phopshomethyl)glycine]
Measure Unit: ×10⁻⁶ cm/s
Papp at 20 mM: 37

The measurements presented in this section are drawn from paper PMC7193547.
